assaySystem: BACE1 (Homo sapiens, UniProt P56817)
Sequence (P56817 46-501, species assumed): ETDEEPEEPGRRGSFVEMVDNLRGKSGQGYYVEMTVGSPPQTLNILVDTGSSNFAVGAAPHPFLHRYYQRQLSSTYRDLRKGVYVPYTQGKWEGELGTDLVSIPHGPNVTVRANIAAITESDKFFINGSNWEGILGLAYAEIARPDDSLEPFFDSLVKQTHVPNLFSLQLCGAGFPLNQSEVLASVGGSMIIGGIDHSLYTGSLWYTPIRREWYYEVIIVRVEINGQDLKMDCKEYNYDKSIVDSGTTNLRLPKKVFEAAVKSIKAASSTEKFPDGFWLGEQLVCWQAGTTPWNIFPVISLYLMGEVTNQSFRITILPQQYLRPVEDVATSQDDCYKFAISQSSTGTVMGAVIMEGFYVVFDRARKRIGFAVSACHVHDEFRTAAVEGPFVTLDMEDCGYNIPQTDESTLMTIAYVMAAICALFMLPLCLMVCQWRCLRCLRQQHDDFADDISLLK
testProtocol: In Vitro Enzymatic BACE FRET (Fluorescence Resonance Energy Transfer) Assay
Assay type: biochemical
conditionSummary: BACE1 FRET assay, Table IV, class symbols
measuredMetric: IC50

The reported IC50 of the compound "NC1=N[C@@]2(CO1)c1cc(-c3cccnc3F)ccc1Oc1cnc(C3=CCOCC3)cc12" was < 100 nM

----------
assaySystem: BACE1 (Homo sapiens, UniProt P56817)
testProtocol: In Vitro Enzymatic BACE FRET (Fluorescence Resonance Energy Transfer) Assay
Assay type: biochemical
conditionSummary: Table IV, class symbols; read-out: BACE1 FRET assay
pIC50: −log10 of the molar value.
measuredMetric: pIC50

Sure, the documented pIC50 for "CC(C)(C)C#Cc1ccc2c(c1)[C@]1(COC(N)=N1)c1cc(-c3cccnc3)cnc1O2" is 6.00 to 7.00

Quick note, pIC50 for "Cn1cc(-c2ccc3c(c2)[C@]2(COC(N)=N2)c2cc(-c4cccnc4)ccc2O3)ccc1=O" landed at > 7.00

Lookup result for "NC1=N[C@@]2(CO1)c1cc(-c3cncnc3)ccc1Oc1c(F)cccc12" ; measured pIC50: > 7.00
